measuredOn: PfHsp70‐x C‐terminal truncated version with a missing EEVN motif (Plasmodium falciparum)
assayProtocol: SPR; PfHsp70‐x or PfHsp70‐xT immobilised on ProteOn GLC chips, peptides as analytes at 1.25-20 nM, 25°C, PBS‐Tween pH 7.4, with 2 mM ADP
// Kd lookup, one value per entry
Reply with just the number (in µM).

* ANNNMYRR [peptide ANNNMYRR] | 443
* NRLLTG [peptide NRLLTG] | 0.17
* ALLLMYRR [peptide ALLLMYRR] | 313

Continue with the binder presented below.
Input: Reported Kd, binder NRNNTG [peptide NRNNTG] : ____
Output: 0.00169
